# System Name: CDK1/CyclinB (h) (Homo sapiens, UniProt P06493)
# Sequence (P06493 whole entry): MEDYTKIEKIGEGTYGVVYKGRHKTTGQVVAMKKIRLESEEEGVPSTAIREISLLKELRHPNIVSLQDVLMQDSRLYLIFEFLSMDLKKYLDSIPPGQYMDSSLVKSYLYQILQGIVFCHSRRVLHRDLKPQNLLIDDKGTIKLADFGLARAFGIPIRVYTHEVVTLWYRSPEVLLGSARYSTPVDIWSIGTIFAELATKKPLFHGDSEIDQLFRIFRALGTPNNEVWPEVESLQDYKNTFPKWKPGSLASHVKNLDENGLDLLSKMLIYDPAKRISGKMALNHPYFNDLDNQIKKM
# Sequence (P14635 whole entry partner): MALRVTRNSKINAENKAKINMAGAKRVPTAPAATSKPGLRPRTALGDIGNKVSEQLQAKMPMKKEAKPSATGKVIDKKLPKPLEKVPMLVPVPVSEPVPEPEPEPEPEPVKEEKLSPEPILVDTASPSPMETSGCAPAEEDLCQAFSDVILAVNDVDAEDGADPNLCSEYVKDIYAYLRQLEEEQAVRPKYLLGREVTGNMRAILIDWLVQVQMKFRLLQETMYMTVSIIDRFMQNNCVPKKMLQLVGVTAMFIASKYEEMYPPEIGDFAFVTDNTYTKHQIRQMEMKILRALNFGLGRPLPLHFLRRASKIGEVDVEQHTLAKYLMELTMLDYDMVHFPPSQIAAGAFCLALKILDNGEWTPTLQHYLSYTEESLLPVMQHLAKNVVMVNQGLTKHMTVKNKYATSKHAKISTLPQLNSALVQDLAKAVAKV
# Experiment Description: CDK1/CyclinB human kinase inhibition, Invitrogen's FRET assay (Z'lyte)
# Type: biochemical
# Condition Context: read-out: CDK1 pIC50 (converted)
Measurement Name: IC50

Compound: CN1CCNC(=O)C2CCN(CC2)Cc2cc(Br)cc(c2)Nc2nccc(n2)-c2ccc(cc2)C1
System Name: CDK1/CyclinB (h) (Homo sapiens, UniProt P06493)
Observed Measurement: > 10 µM
--
Compound: O=C1NCc2cccc(c2)-c2ccnc(n2)Nc2cc(ccc2Cl)CN[C@H]1CO
System Name: CDK1/CyclinB (h) (Homo sapiens, UniProt P06493)
Observed Measurement: 9.12 µM
--
Compound: C[C@@H]1NCc2ccc(cc2)Nc2nccc(n2)-c2cccc(c2)CNC1=O
System Name: CDK1/CyclinB (h) (Homo sapiens, UniProt P06493)
Observed Measurement: 6.46 µM
--
Compound: O=C1NCCCc2cc(ccn2)-c2ccnc(n2)Nc2ccc(N3CCOCC3)c(c2)CN2CCCC12 (centres unmarked)
System Name: CDK1/CyclinB (h) (Homo sapiens, UniProt P06493)
Observed Measurement: > 10 µM
--
Compound: O=C1NCc2cccc(c2)-c2ccnc(n2)Nc2ccc(cc2)CN[C@H]1Cc1ccccc1
System Name: CDK1/CyclinB (h) (Homo sapiens, UniProt P06493)
Observed Measurement: > 10 µM
--
Compound: O=C1NCc2ccc(cc2)-c2ccnc(n2)Nc2ccc(N3CCOCC3)c(c2)CN2CCC[C@@H]12
System Name: CDK1/CyclinB (h) (Homo sapiens, UniProt P06493)
Observed Measurement: > 10 µM
--
Compound: O=C1NCc2cccc(c2)-c2ccnc(n2)Nc2cccc(c2)CN2C[C@@H](O)C[C@@H]12
System Name: CDK1/CyclinB (h) (Homo sapiens, UniProt P06493)
Observed Measurement: 0.0708 µM

Lab note: next compound to report on.
// lookup IC50 | system=CDK1/CyclinB (h) (Homo sapiens, UniProt P06493) | key= COc1ccc2cc1CN1CCC[C@H]1C(=O)NCCCc1ccc(cn1)-c1ccnc(n1)N2
> 10 µM
